Molecular target: T1, Cdc13-Y561A (Saccharomyces cerevisiae, UniProt P32797 1-924, Y561A)
T1 sequence: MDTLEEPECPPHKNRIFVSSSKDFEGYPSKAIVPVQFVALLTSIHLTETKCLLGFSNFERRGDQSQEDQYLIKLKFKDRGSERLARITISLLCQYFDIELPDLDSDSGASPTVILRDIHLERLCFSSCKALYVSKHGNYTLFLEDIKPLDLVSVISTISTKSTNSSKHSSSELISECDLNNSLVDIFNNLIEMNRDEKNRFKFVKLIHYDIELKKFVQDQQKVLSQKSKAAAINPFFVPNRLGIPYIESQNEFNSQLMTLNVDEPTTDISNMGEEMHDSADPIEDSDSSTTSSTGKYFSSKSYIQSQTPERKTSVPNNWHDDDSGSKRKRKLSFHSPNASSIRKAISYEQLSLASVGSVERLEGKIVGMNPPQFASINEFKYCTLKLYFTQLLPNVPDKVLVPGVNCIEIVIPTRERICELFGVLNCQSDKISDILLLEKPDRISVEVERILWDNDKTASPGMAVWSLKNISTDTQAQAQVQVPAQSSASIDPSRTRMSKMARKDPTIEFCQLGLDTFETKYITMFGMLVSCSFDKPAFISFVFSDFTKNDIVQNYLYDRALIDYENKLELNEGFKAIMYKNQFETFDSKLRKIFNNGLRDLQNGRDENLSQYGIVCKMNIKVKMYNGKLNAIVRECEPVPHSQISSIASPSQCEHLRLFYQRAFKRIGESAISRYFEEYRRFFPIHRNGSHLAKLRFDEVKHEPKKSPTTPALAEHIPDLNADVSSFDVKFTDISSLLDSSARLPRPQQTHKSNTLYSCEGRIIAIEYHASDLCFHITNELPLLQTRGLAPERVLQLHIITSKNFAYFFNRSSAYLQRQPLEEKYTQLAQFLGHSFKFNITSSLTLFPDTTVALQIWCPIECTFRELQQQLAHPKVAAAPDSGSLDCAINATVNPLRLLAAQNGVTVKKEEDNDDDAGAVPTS
Assay: EMSA
QUANTITY: Kd (pM)
Give the quantity in pM, number only.

// fetch Kd given entry GTGTGGGTGTG (ssDNA) [Tel11] 17

Ref: paper PMC3874162
